Quick list: inhibition per entry.
EXPERIMENTAL TARGET: UniProt Q13627
MEASUREMENT DESCRIPTION: Inhibition of DYRK1A in human SH-SY5Y overexpressing Tau4R cells assessed as phosphorylated Tau Thr212 residue level at 10 uM incubated for 6 hrs by western blot analysis relative to control
Format: cell-based
Give the value, in units of %, as a plain number.

CCCSC1=N/C(=C\c2ccc3c(c2)OCO3)C(=O)N1 ... -2.4
CCNC1=N/C(=C\c2ccc3c(c2)OCO3)C(=O)N1 ... -6
CCCCOc1ccc(/C=C2\N=C(Nc3ccccc3)NC2=O)cc1OC ... -8
O=C1NC(Nc2ccc(-c3ccccc3)cc2)=N/C1=C\c1ccc2c(c1)OCO2 ... -5.1

Continue with the molecule presented below.
Provide one value: measured inhibition of CCCNC1=N/C(=C\c2ccc3c(c2)OCO3)C(=O)N1CCC
-1.5

* * *

EXPERIMENTAL TARGET: Dual specificity protein kinase CLK4 (Mus musculus, UniProt O35493)
Sequence (O35493 whole entry, the tested form may be a part): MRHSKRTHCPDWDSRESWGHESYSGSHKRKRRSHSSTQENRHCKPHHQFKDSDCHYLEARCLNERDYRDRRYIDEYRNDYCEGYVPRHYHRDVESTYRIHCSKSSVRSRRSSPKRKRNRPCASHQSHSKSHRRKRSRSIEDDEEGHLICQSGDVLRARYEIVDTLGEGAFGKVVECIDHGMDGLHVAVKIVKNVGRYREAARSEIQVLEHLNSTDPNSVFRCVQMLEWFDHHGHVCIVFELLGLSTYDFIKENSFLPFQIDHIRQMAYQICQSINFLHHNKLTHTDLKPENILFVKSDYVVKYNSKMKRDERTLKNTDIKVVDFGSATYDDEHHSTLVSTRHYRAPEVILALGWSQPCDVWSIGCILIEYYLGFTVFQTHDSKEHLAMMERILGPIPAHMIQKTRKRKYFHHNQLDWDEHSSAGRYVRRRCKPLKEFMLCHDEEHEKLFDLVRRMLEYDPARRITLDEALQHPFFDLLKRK
MEASUREMENT DESCRIPTION: Inhibition of GST-fused mouse recombinant CLK4 expressed in Escherichia coli using GRSRSRSRSRSR peptide as substrate incubated for 30 mins in presence of ATP by scintillation counting method
pIC50: −log10 of the molar value.
Record 1 (yes) whenever pIC50 is at 7 or higher; record 0 (no) when lower.

hey, is pIC50 for this one >= 7? CCCCCOc1ccc(NC2=N/C(=C\c3ccc4c(c3)OCO4)C(=O)N2)cc1
0 (no)

hey, is pIC50 for this one >= 7? CN1CCN(c2ccc(NC3=N/C(=C\c4ccc5c(c4)OCO5)C(=O)N3)cc2)CC1
1 (yes)

hey, is pIC50 for this one >= 7? O=C1NC(N2CCCCC2)=N/C1=C\c1ccc2c(c1)OCO2
0 (no)

hey, is pIC50 for this one >= 7? CCNC1=N/C(=C\c2ccc3c(c2)OCO3)C(=O)N1
1 (yes)

hey, is pIC50 for this one >= 7? O=C1NC(Nc2ccc(-c3ccccc3)cc2)=N/C1=C\c1ccc2c(c1)OCO2
0 (no)

* * *

EXPERIMENTAL TARGET: Dual specificity tyrosine-phosphorylation-regulated kinase 1A (Homo sapiens)
MEASUREMENT DESCRIPTION: Inhibition of GST-fused human recombinant DYRK1A expressed in Escherichia coli using GRSRSRSRSRSR peptide as substrate incubated for 30 mins in presence of ATP by scintillation counting method
READOUT KIND: pIC50
pIC50 (log units): -log10 of the concentration in mol/L.

Observe how each entry below is paired with its result.
COc1ccc(/C=C2\N=C(Nc3ccccc3)NC2=O)cc1O ... 5.70
COc1cc(/C=C2\N=C(Nc3ccc(N4CCNCC4)cc3)NC2=O)ccc1O ... 5.89
O=C1NC(Nc2ccccc2)=N/C1=C\c1ccc2c(c1)CCCO2 ... 6.92

Provide one value: measured pIC50 of O=C1NC(Nc2ccc(-c3ccccc3)cc2)=N/C1=C\c1ccc2c(c1)OCO2
5.09

Provide one value: measured pIC50 of CN1C(=O)/C(=C/c2ccc3c(c2)OCO3)N=C1Nc1ccccc1
7.03

Provide one value: measured pIC50 of O=C1N=C(Nc2ccccc2)S/C1=C\c1ccc2c(c1)OCO2
5.00

Provide one value: measured pIC50 of O=C1NC(Nc2ccc(O)c(F)c2)=N/C1=C\c1ccc2c(c1)OCO2
7.92

Provide one value: measured pIC50 of O=C1NC(Nc2ccc(N3CCNCC3)cc2)=N/C1=C\c1ccc2c(c1)OC=CO2
6.28

Provide one value: measured pIC50 of O=C1NC(N2CCN(c3ccc(F)cc3)CC2)=N/C1=C\c1ccc2c(c1)OCCO2
5.51

* * *

EXPERIMENTAL TARGET: Dual specificity tyrosine-phosphorylation-regulated kinase 3 (Homo sapiens, UniProt O43781)
Sequence (O43781 whole entry, the tested form may be a part): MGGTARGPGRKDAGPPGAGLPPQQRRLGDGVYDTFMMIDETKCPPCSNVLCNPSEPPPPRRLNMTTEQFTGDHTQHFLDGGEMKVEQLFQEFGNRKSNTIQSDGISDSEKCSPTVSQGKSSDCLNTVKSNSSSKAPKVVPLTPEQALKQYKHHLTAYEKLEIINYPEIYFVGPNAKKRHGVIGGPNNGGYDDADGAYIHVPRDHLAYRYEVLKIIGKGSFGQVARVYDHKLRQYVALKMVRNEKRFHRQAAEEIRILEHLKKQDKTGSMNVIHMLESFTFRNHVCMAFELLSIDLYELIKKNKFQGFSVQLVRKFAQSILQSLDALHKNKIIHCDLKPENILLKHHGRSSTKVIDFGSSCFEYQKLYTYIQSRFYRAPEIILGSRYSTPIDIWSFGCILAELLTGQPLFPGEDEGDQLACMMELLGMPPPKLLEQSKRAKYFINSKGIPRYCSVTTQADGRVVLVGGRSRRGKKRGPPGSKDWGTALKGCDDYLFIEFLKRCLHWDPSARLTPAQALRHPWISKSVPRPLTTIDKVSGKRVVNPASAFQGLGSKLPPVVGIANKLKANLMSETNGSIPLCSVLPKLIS
MEASUREMENT DESCRIPTION: Inhibition of GST-fused human recombinant DYRK3 expressed in Escherichia coli using GRSRSRSRSRSR peptide as substrate incubated for 30 mins in presence of ATP by scintillation counting method
READOUT KIND: IC50 (µM)
Give the value, in units of µM, as a plain number.

Observe how each entry below is paired with its result.
Cc1ccc(NC2=N/C(=C\c3ccc4c(c3)OCO4)C(=O)N2)cc1 ... 0.32
COc1cc(/C=C2\N=C(Nc3ccc(N4CCNCC4)cc3)NC2=O)ccc1O ... 1.5
CCCSC1=N/C(=C\c2ccc3c(c2)OCO3)C(=O)N1C ... 0.62
O=C1NC(Nc2ccc(N3CCNCC3)cc2)=N/C1=C\c1ccc2c(c1)OCO2 ... 1.2
CCSC1=N/C(=C\c2ccc3c(c2)OCO3)C(=O)N1 ... 0.16
O=C1NC(Nc2cccc(F)c2)=N/C1=C\c1ccc2c(c1)OCO2 ... 0.35
COc1ccc(/C=C2\N=C(Nc3ccccc3)NC2=O)cc1O ... 2.4
CNC1=N/C(=C\c2ccc3c(c2)OCO3)C(=O)N1 ... 0.48
CN1CCN(c2ccc(NC3=N/C(=C\c4ccc5c(c4)OCO5)C(=O)N3)cc2)CC1 ... 0.025
CCCCCOc1ccc(NC2=N/C(=C\c3ccc4c(c3)OCO4)C(=O)N2)cc1 ... 7

Provide one value: measured IC50 of COc1cc(/C=C2\N=C(Nc3ccc(N4CCCCC4)cc3)NC2=O)ccc1O
0.3

* * *

MEASUREMENT DESCRIPTION: Neurotoxicity against mouse HT-22 cells assessed as cell survival at 20 uM treated for 24 hrs by MTS assay
Assay type: toxicity, cell-based
EXPERIMENTAL SETUP: ht-22, 24 h
READOUT KIND: Activity

Observe how each entry below is paired with its result.
Cc1ccc(C)c(NC2=N/C(=C\c3ccc4c(c3)OCO4)C(=O)N2)c1 ... Non-Toxic
CCCCCOc1ccc(NC2=N/C(=C\c3ccc4c(c3)OCO4)C(=O)N2)cc1 ... Non-Toxic
CCCNC1=N/C(=C\c2ccc3c(c2)OCO3)C(=O)N1CCC ... Non-Toxic
O=C1NC(N2CCOCC2)=N/C1=C\c1ccc2c(c1)OCO2 ... Non-Toxic

Provide one value: measured Activity of CCCSC1=N/C(=C\c2ccc3c(c2)OCO3)C(=O)N1
Non-Toxic

Provide one value: measured Activity of COc1cc(/C=C2\N=C(Nc3ccc(N4CCNCC4)cc3)NC2=O)ccc1O
Non-Toxic

Provide one value: measured Activity of O=C1NC(Nc2ccc(Oc3ccccc3)cc2)=N/C1=C\c1ccc2c(c1)OCO2
Non-Toxic

Provide one value: measured Activity of O=C1NC(Nc2ccccc2)=N/C1=C\c1ccccc1
Non-Toxic

Provide one value: measured Activity of Cc1ccc(NC2=N/C(=C\c3ccc4c(c3)OCO4)C(=O)N2)cc1
Non-Toxic

Provide one value: measured Activity of COc1ccc(/C=C2\N=C(Nc3ccccc3)NC2=O)cc1O
Non-Toxic

Provide one value: measured Activity of CCSC1NC(=O)/C(=C/c2ccc3c(c2)OCO3)N1C (stereo unspecified)
Non-Toxic

* * *

EXPERIMENTAL TARGET: Serine/threonine-protein kinase pim-1 (Homo sapiens, UniProt P11309)
Sequence (P11309 whole entry): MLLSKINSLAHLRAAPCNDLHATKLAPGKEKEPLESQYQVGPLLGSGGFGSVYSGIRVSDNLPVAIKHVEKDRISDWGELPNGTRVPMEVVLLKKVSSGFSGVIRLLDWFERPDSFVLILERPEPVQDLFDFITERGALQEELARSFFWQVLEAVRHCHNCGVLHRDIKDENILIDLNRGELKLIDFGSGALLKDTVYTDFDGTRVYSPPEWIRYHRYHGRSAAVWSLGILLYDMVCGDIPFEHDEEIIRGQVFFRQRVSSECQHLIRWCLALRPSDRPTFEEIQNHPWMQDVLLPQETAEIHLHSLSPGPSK
MEASUREMENT DESCRIPTION: Inhibition of human recombinant Pim1 expressed in Escherichia coli using histone H1 as substrate incubated for 30 mins in presence of ATP by scintillation counting method
READOUT KIND: IC50 (µM)
Give the value, in units of µM, as a plain number.

Observe how each entry below is paired with its result.
COc1cc(/C=C2\N=C(Nc3ccc(N4CCCCC4)cc3)NC2=O)ccc1O ... 6.3
NC1=N/C(=C\c2ccc3c(c2)OCO3)C(=O)N1 ... 0.32
Cc1ccc(NC2=N/C(=C\c3ccc4c(c3)OCO4)C(=O)N2)cc1 ... 3.5
Cc1ccc(C)c(NC2=N/C(=C\c3ccc4c(c3)OCO4)C(=O)N2)c1 ... 7.7
CCCSC1=N/C(=C\c2ccc3c(c2)OCO3)C(=O)N1C ... 2
CSC1=N/C(=C\c2ccc3c(c2)OCO3)C(=O)N1 ... 1.2
O=C1NC(N2CCCC2)=N/C1=C\c1ccc2c(c1)OCO2 ... 1.5
O=C1NC(N2CCN(c3ccc(F)cc3)CC2)=N/C1=C\c1ccc2c(c1)OCCO2 ... 9.3

Provide one value: measured IC50 of COc1ccc(/C=C2\N=C(Nc3ccccc3)NC2=O)cc1O
1.9

* * *

EXPERIMENTAL TARGET: Dual specificity tyrosine-phosphorylation-regulated kinase 2 (Homo sapiens, UniProt Q92630)
Sequence (Q92630 whole entry): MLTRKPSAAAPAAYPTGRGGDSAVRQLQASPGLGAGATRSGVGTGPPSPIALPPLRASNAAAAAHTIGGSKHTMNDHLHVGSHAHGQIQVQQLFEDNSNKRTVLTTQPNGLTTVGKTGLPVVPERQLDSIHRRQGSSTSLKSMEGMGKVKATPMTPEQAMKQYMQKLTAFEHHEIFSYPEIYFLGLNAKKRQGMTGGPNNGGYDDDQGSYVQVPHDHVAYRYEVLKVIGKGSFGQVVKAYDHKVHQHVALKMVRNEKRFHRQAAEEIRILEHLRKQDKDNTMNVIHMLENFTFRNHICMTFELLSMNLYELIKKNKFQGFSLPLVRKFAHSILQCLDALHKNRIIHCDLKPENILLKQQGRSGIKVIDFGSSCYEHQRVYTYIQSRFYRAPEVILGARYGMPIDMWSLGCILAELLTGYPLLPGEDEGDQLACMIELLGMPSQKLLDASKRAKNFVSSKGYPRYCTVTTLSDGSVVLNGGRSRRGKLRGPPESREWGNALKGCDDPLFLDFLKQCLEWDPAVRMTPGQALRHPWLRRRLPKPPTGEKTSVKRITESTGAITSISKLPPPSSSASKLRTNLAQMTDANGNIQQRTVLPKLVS
MEASUREMENT DESCRIPTION: Inhibition of GST-fused human recombinant DYRK2 expressed in Escherichia coli using GRSRSRSRSRSR peptide as substrate incubated for 30 mins in presence of ATP by scintillation counting method
READOUT KIND: log10(IC50) (log10 of the value in nM)
Kindly note that the scale is log10 and the underlying IC50 is in nM.

Observe how each entry below is paired with its result.
CN(C1=N/C(=C\c2ccc3c(c2)OCO3)C(=O)N1)c1ccccc1 ... 2.51
CNC1=N/C(=C\c2ccc3c(c2)OCO3)C(=O)N1 ... 2.11
O=C1NC(N2CCN(c3ccc(F)cc3)CC2)=N/C1=C\c1ccc2c(c1)OCCO2 ... 3.34
O=C1NC(NC2CCNCC2)=N/C1=C\c1ccc2c(c1)OCO2 ... 2.40
COc1cc(/C=C2\N=C(Nc3ccc(N4CCNCC4)cc3)NC2=O)ccc1O ... 3.32

Provide one value: measured log10(IC50) of COc1ccc(NC2=N/C(=C\c3ccc4c(c3)OCO4)C(=O)N2)cc1
2.11

Provide one value: measured log10(IC50) of COc1cc(/C=C2\N=C(Nc3ccccc3)NC2=O)ccc1O
1.52

Provide one value: measured log10(IC50) of Cc1ccc(C)c(NC2=N/C(=C\c3ccc4c(c3)OCO4)C(=O)N2)c1
1.34

Provide one value: measured log10(IC50) of CCCSC1=N/C(=C\c2ccc3c(c2)OCO3)C(=O)N1
1.57

Provide one value: measured log10(IC50) of O=C1NC(Nc2ccc(N3CCCCC3)cc2)=N/C1=C\c1ccc2c(c1)OCO2
2.36
